Source: patent US20090054376A1

Target: Human CB2 Receptor (Homo sapiens)
Construct: host or cells: Sf9 or HEK-293 cells (membranes)
Sequence (P34972 whole entry): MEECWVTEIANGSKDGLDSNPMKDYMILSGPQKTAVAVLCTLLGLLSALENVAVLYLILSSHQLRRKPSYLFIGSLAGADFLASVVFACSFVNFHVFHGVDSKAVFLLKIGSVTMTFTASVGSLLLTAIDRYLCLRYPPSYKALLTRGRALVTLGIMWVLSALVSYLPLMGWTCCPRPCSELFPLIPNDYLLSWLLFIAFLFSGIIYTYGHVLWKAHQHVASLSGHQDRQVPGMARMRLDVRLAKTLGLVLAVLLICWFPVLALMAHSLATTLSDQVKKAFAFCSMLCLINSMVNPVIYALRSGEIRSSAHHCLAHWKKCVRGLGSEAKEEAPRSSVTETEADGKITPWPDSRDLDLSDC
Assay: [35S]GTPγS-binding assay, hCB2
Type: biochemical
Details: GTPγS, Human CB2 Receptor; upper plateau of curve; NB = no binding
metric name: Emax (%)
Give the value, in units of %, as a plain number.

Reference set (2 entries):
Exercise: Using known records, supply Emax for CCCCCCC(C)(C)c1cc(OC(=O)C=CC(=O)O)c2c(c1)OC1CCCCCC21 (stereo not shown) [Compound C7S-9]
Key: 52

Exercise: Return Emax for the following molecule: CCCCCCC(C)(C)c1cc(OC(=O)C=CC(=O)O)c2c(c1)OC1C(I)CCCCC21 (stereo not shown) [Compound C7S-28]
Key: 44

Proceeding to the next molecule to report its Emax.
Exercise: // fetch Emax given entry CCCCCCC(C)(C)c1cc(O)c2c(c1)OC1CCCCC(C(=O)O)C21 (stereo not shown) [Compound C7S-31]
Key: 54

====

Target: Human CB1 Receptor (Homo sapiens, UniProt P21554)
Construct: expressed in transfected cells; host or cells: HEK-293 cells (membranes)
Sequence (P21554 whole entry): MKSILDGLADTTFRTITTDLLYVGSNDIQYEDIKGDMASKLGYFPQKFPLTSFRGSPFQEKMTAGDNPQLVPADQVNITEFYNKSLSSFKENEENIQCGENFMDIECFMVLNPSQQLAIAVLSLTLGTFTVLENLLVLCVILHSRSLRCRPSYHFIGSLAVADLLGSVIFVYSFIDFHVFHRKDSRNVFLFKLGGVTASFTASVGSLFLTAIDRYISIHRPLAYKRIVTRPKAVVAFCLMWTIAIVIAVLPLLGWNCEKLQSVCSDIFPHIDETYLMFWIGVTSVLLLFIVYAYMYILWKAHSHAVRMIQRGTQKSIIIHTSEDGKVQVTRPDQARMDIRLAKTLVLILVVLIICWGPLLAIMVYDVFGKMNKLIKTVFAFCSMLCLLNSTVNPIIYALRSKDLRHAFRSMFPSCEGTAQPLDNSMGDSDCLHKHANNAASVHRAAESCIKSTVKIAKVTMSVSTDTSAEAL
Test: [35S]GTPγS-binding assay, hCB1
Type: biochemical
Conditions: upper plateau of curve, NB = no binding
Overview of reported Emax across a group of molecules:
Your answer should be a plain number; it is taken to be in %.

Exercise: Supply recorded Emax for CCCCCCC(C)(C)c1cc(OC(=O)C=CC(=O)O)c2c(c1)OC1C(I)CCCCC21 (stereo not drawn) [Compound C7S-28] here.
Key: 118

Exercise: Tell me Emax reported for CCCCCCC(C)(C)c1cc(O)c2c(c1)OC1CC(C)(C)CCC21 (stereo not drawn) [Compound C6S-17]
Key: -25

Exercise: Return value of Emax for input CCCCCCC(C)(C)c1cc(OC(=O)C=CC(=O)O)c2c(c1)OC1CC(C)(C)CCC21 (stereo not drawn) [Compound C6S-37] , no commentary.
Key: 102

Exercise: Using the record for CCCCCCC(C)(C)c1cc(O)c2c(c1)OC1C(O)CCCCC21 (stereo not drawn) [Compound C7S-2] , state its measured Emax.
Key: 50

Exercise: Return value of Emax for input CCCCCCC(C)(C)c1cc(O)c2c3c(oc2c1)CC(C)(C)CC3 [Compound C6M-10] , no commentary.
Key: 132

Exercise: Query Emax for CCCCC(C)(C)c1cc(OC(=O)C=CC(=O)O)c2c3c(oc2c1)CCCC3 [Compound C6M-8]
Key: -25

Exercise: Name the recorded Emax of the molecule listed here: CCCCCCC(C)(C)c1cc(O)c2c(c1)OC1C(O)CCCCC21 (single isomer, unassigned) [Compound C7S-29]
Key: 41

Here is the next item to consider.
Exercise: Identify measured Emax associated with CCCCCCC(C)(C)c1cc(O)c2c(c1)OC1C(I)CCCCC21 (stereo not drawn) [Compound C7S-26]
Key: 155

====

Target: UniProt:P34972
Test: [35S]GTPγS-binding assay, hCB2
Conditions: GTPγS, Human CB2 Receptor; NB = no binding
metric name: pEC50
// returns pEC50 (minus log10 of molar concentration), number only

See these solved cases before continuing.
Exercise: Please report pEC50 for the following compound: CCCCCCC(C)(C)c1cc(O)c2c(c1)OC1CC(C)(C)CCC21 (stereo not shown)
Key: 8.40

Exercise: Consider the compound CCCCCCC(C)(C)c1cc(OC(=O)C=CC(=O)O)c2c(c1)OC1CC(C)(C)CCC21 (stereo not shown) . State its measured pEC50.
Key: 7.62

Exercise: Respond only with pEC50 recorded for CCCCCCC(C)(C)c1cc(O)c2c(c1)OC1C(O)CCCCC21 (single isomer, unassigned) [Compound C7S-29]
Key: 7.27

Switching to the query record.
Exercise: // fetch pEC50 given entry CCCCCCC(C)(C)c1cc(O)c2c(c1)OC1C(=NO)CCCC21 (stereo not shown)
Key: 5.25

====

Test system: carrageenan induced inflammatory pain and paw edema
Test: Inflammatory pain and paw edema induced by carrageenan
Format: in vivo, Male Sprague Dawley rats
Conditions: Rattus norvegicus, ip; 10 mg/kg i.p., 3 hours, thermal stimulus; read-out: Percent Inhibition of Inflammatory Pain Responses, ΔLT
I'd appreciate it if you could label each record using inhibition in vivo at 10 mg/kg and these ranges: band 1 (below 50%), band 2 (50% to below 60%), band 3 (60% or more)

Exercise: Class (by measured inhibition in vivo at 10 mg/kg) for CCCCCCC(C)(C)c1cc(O)c2c(c1)OC1C=CCCC21 (stereo not shown) [Compound C6S-2]
Key: band 2

Exercise: Class for CCCCC(C)(C)c1cc(OC(=O)C=CC(=O)O)c2c3c(oc2c1)CCCC3 [Compound C6M-8] ?
Key: band 1

Exercise: Exam item: assign Cc1ccc(-c2cc(C(F)(F)F)nn2-c2ccc(S(N)(=O)=O)cc2)cc1 [Celecoxib, reference compound] to the correct category.
Key: band 2

Exercise: Please indicate the class for CCCCC(C)(C)c1cc(O)c2c(c1)OC1CCCCC21 (stereo not shown) [Compound C6S-3] based on its inhibition in vivo at 10 mg/kg.
Key: band 3

Exercise: Sort CCCCCCC(C)(C)c1cc(O)c2c3c(oc2c1)C(=O)CCC3(C)C [Compound C6M-9] into one of the categories.
Key: band 3

Exercise: Lab note: which band did CCCCC(C)(C)c1cc(O)c2c(c1)OC1C2CCC(C)(C)C1O (stereo not shown) [Compound C6S-7] land in?
Key: band 2

Exercise: Looking at CCCCC(C)(C)c1cc(O)c2c(c1)OC1CCCCC21C (stereo not shown) [Compound C6S-12] , which class would you pick?
Key: band 1

Exercise: // bin(item) where item = CCCCC(C)(C)c1cc(OCC(=O)O)c2c(c1)OC1CCCCC21 (stereo not shown) [Compound C6S-9]
Key: band 2

Exercise: For this molecule, which bin applies? CCCCCCC(C)(C)c1cc(O)c2c3c(oc2c1)CCCC3 [Compound C6M-1]
Key: band 1

====

Biological target: Human CB1 Receptor (Homo sapiens)
Assay: [35S]GTPγS-binding assay, hCB1
Conditions: NB = no binding
metric name: EC50 (µM)
Entry rule: numbers only, all in µM.

Worked set:
Exercise: Identify measured EC50 associated with CCCCCCC(C)(C)c1cc(O)c2c(c1)OC1C(O)CCCCC21 (centres unmarked) [Compound C7S-2]
Key: 0.359

Exercise: Return EC50 (reported value) for this molecule: CCCCCCC(C)(C)c1cc(O)c2c3c(oc2c1)CC(C)(C)CC3
Key: 5.3

Turning now to a further molecule:
Exercise: Please supply the value of reported EC50 for the item CCCCCCC(C)(C)c1cc(OC(=O)C=CC(=O)O)c2c(c1)OC1CC(C)(C)CCC21 (centres unmarked)
Key: 3.97

====

Biological target: Human CB1 Receptor (Homo sapiens, UniProt P21554)
Experiment: [35S]GTPγS-binding assay, hCB1
Settings: NB = no binding
pEC50: −log10 of the molar value.
metric name: pEC50

Look over these answered cases.
Exercise: Note down pEC50 recorded for CCCCCCC(C)(C)c1cc(O)c2c(c1)OC1CCCCC(C(=O)O)C21 (stereo not drawn) [Compound C7S-31]
Key: < 5.00

Exercise: Tell me pEC50 reported for CCCCCCC(C)(C)c1cc(O)c2c(c1)OC1C(=NO)CCCC21 (stereo not drawn) [Compound C6S-27]
Key: < 5.00

As a next step, examine the compound that follows.
Exercise: Give recorded pEC50. CC1(C)CCC2c3c(O)cc(C4(CCc5ccccc5)SCCS4)cc3OC2C1 (stereo not drawn) [Compound C6S-38]
Key: < 5.00
